All figures here come from patent US20110236380A1.

tested.on: T1, human IL-13 (human, UniProt P35225 35-146, limits assumed)
T1 construct: Biotinylated and captured on a streptavidin chip in the Biacore assays; not biotinylated (IL-13, GSK) in the ELISA and HEK Blue-STAT6 assays; also called human interleukin-13; IL-13 (GSK)
protocol.description: Biacore SPR, biotinylated IL-13 on streptavidin chip, dAb as analyte, 1:1 model, 25 C
measure: pKd
On this scale, pKd is minus log10 of a concentration expressed in M (mol/L).

Solved entries (count: 4):
Give the measured pKd of DOM10-53-568 (other) VH: GVQLLESGGGLVQPGGSLRLSCAASGFVFAWYDMGWVRQAPGKGLEWVSSIDWHGKITYYADSVKGRFTISRDNSKNTLYLQMNSLRAEDTAVYYCATAEDEPGYDYWGQGTLVTVSS . 10.15

Give the measured pKd of DOM10-53-616 (other) VH: GVQLLESGGGLVQPGGSLRLSCAASGFVFPWYDMGWVRQAPGKGLEWVSSIDWHGKITYYADSVKGRFTISRDNSKNTLYLQMNSLRAEDTAVYYCATAEDEPGYDYWGQGTLVTVSS . 9.89

Give the measured pKd of DOM10-53-567 (other) VH: GVQLLESGGGLVQPGGSLRLSCAASGFVFAWYDMGWVRQAPGKGLEWVSSIDWHGEVTYYADSVKGRFTISRDNSKNTLYLQMNSLRAEDTAVYYCATAEDEPGYDYWGQGTLVTVSS . 10.14

Give the measured pKd of DOM10-53-474 (other, Anti-IL-13 immunoglobulin single variable domain (dAb), monomer) VH: GVQLLESGGGLVQPGGSLRLSCAASGFTFAWYDMGWVRQAPGKGLEWVSSIDWHGEVTYYADSVKGRFTISRDNSKNTLYLQMNSLRAEDTAVYYCATAEDEPGYDYWGQGTLVTVSS . 9.59

Query binder follows.
Give the measured pKd of DOM10-53-546 (other) VH: GVQLLESGGGLVQPGGSLRLSCAASGFVFPWYDMGWVRQAPGKGLEWVSSIDWKGGKTYYADSVKGRFTISRDNSKNTLYLQMNSLRAEDTAVYYCATAEDEPGYDYWGQGTLVTVSS . 10.03
